I'd appreciate it if you could supply growth inhibition values for the items below.
# experimentDescription: NCI Yeast Anticancer Drug Screen. Data for the mec2-1 strain (AID 157)
# condition: S. cerevisiae mec2-1 strain, at 50.0 µM, stronger effect = higher value
The panel holds about 79,000 compounds, 15% with a hit somewhere; the sample as a whole holds those more often.
Just the number please, in %, no unit attached.

What does the record list as growth inhibition for O=C(O)Cc1cc2cccc([N+](=O)[O-])c2[nH]1 ?
6.65

Request the reported growth inhibition associated with NC(=O)CNC(=O)[C@@H]1C[C@@H](OCCC(=O)O)CN1C(=O)OCc1ccccc1
-8.75

Report growth inhibition for O=C(NCCCCCCNC(=O)Nc1cccc(C(F)(F)F)c1)Nc1cccc(C(F)(F)F)c1 please.
-13.7

I am curious: what growth inhibition value has been reported for C/C(=N/OC(=O)c1cccc2c(=O)c3ccccc3[nH]c12)[C@H]1CC[C@H]2[C@@H]3CCC4=C/C(=N/OC(=O)c5cccc6c(=O)c7ccccc7[nH]c56)CC[C@]4(C)[C@H]3CC[C@]12C ?
38

Fill in the blank: the reported growth inhibition of CC1([N+](=O)[O-])COC2(CCCC2)OC1 is ____.
12.2

I'd like to know its growth inhibition. The molecule in question is CC(=O)Oc1ccc2ccccc2c1CS(=O)(=O)O
6.05

Which growth inhibition value belongs to COC(=O)/C(C#N)=C/NC(=S)Nc1ccccc1 ?
-0.85

Which growth inhibition reading was recorded for the molecule O=C1Nc2cc(Cl)ccc2N=CC1NC(=O)C(c1ccccc1)c1ccccc1Cl (stereo not given) ?
-11.6

Which value of growth inhibition has been reported for Cc1ccc(O)c(C)n1 in the records?
14

Given Nc1cc(Cl)c2c(c1)C(=O)c1ccccc1-2 , state its recorded growth inhibition.
0.7
